These data points were gathered from the DeepSol protein solubility set.

# ASSAY_PROCEDURE: soluble on expression in E. coli; label from the status in PepcDB or PDB records
QUANTITY_KIND: soluble on expression in E. coli

MKSYIVIGAGILGASTAYHLAKEGASVMIIDRGDKGQATDAAAGIVCPWLSQRRNQKWYRLAKGGAKFYPSLIEELESYGETETGYARVGALWLHTDEQKLEQMEERALKRREDAPEMGEIVRLHPQEAKELFPPLVGEHHALYVSGAARVNGRAVRDALMNASQKRGAAYIRGNARLLFEGSRIIGVEADGTKYAAEAVIVTAGAWAGELLEPLGIKLLVTPQKGQLIHLEHPECDTSHWPVVMPPNNQYMLAFPGSRIVIGTTHEDEAGMDIRPTAGGMHELLDKALAVAPGLSTWTYIETRVGFRPRTPGFLPIFGPLPGFSGVYIANGLGSSGLTVGPYLGKELAKLVIGLPTELDPSDYDVASAVAPIVQ = not soluble
MSLDNMAKRQTKDIETIIQKIYYAKNRHLGTYTPLKNNSELEEINNYIYDLFESNEQLIHSIEHTERRLRDIQLKEIERQFQPHFLFNTMQTIQYLITLSPKLAQTVVQQLSQMLRYSLRTNSHTVELNEELNYIEQYVAIQNIRFDDMIKLHIESSEEARHQTIGKMMLQPLIENAIKHGRDTESLDITIRLTLARQNLHVLVCDNGIGMSSSRLQYVRQSLNNDVFDTKHLGLNHLHNKAMIQYGSHARLHIFSKRNQGTLICYKIPLSRGNVDVEGHHHHHH = not soluble

* * *

# ASSAY_PROCEDURE: soluble on expression in E. coli; label from the status in PepcDB or PDB records
QUANTITY_KIND: soluble on expression in E. coli

Below: 6 sequences and their reported soluble on expression in E. coli.
MEPTEKSMLLETTSTTKMETKYEDMLPVMAEKMDVEEFVSELCKGFSLLADPERHLITAESLRRNSGILGIEGMSKEDAQGMVREGDLDGDGALNQTEFCVLMVRLSPEMMEDAETWLEKALTQELCNHNLSSMP = soluble
MILGICGSPRKQATEHVLERALSMLEDDGLETEFFTVRGKNISPCRHCDYCLRNKECVLKDDMFPLYELLRRAAGIIIATPVYNGGVSAQIKAIMDRCRALGAEDYDSLRGKVGMGIAVGGDRCGGQEPALMQIHTFYILNGVIPVSGGSFGANLGACFWSRDTLEVLKRTHMDSKPSKRPWACLKGSWTLKDPEILFYSEFILEHHHHHH = not soluble
MSLESYVPNNEAKFPENISYGSMGGPTFSTVISELGGGKEQRKVNWTHSRNRYNVAYNTASSDQCSALISFFYAHRGKALPFRFKDWSDYTATGQNIGVGDGKSLNFQLVKRYHAGQYSYVRKISRPVVGTVKMSLGEVSQEYERDYSVDYNSGVVTFAVPPAHNATIHADFEFDVLVRFDTDFLAFAMEAHGNYGCHGVSLVEVSEEGHHHHHH = soluble
MGSDKIHHHHHHMKSNTTMSKTERLFHLLQILRRYRYPLSGQFLANELGVSTRTIYRDIAALQAQGADIEGEPGLGYVLKPGFMLPPLMFNEEEIEALVLGSRWVAKKTDTHLQQAAHNALAKIASVLPADLRQQLELSSLLIGPGEVISGEDESLALVRKAIRKELKLFIQYHDLKGNVSTRTIWPIGLGYFDQVRVLIAWCELKKDFRHFRADRIVDVENLGVCYAKRRSVLLHDWRKQNNIPG = not soluble
MMRGGMGNMNNMMKQMQKMQKEMAKAQEELGEKTVEGTAGGGMITVIANGHKQILEVKVKEEVVDPEDIEMLQDLVLAATNDALKKADELSNSTMGKFTKGLNLPGGMF = soluble
MAVSLSKGGNVSLSKEAPGLTGIVVGLGWDPRATDGQAFDLDGSVFLLDAGGKVRGDSDFIFYNNKTSSDGSVEHTGDNTTGAGEGDDETVKIDLSKVPADVDKIAVCVTIHEAETRNQNFGQVSKAYIRVMNQTGGAEIARYDLSEDASTDTAMIFGEVYRHGSDWKFKAVGQGYAGGLAPLARNYGVNV = soluble

Ask: Using the record for MASPISHSSHENASGKYGYGDESQHGKNFHQKAEHSGHEAKEKGYSQDGKAADHDALHKDAAEHKQNKEAHQSGSGNKYVDDASNYNKDVKTKTFGFFDYRYVQPQYHMEQYHTDEKHANKYAGDEHNAGQQHKDNGGYHADGHQGYDKAQEKHGASHTNYGNEDAGHKSKYDDNEGKYGDHTDGYYNKGYDNYGQGHDSESYQPSYYQPKPKYYGGHQSHYQPSARHSSPYQGDQYYGYEAPHY , report its soluble on expression in E. coli.
Result: not soluble

Ask: Using the record for MGSDKIHHHHHHMKLISVKRIWEQGAHNAFTDLIRFQGALFCVFREGTAHVSPDGALRILRSADLGDTWQSVALIRSDEADLRDGKLIEYQGELLLLGGGTLHDKSGLQSHLWRSLDGLVWSDALKIGDKGYWLWRLTEYQNALYGVGYRAGPDGDTRLYKSDDGVQFETWLMVFNNQGYVNESAIVFDQDNGFCLLRRDPVWGPEYVGLLGCSQAPFIDWQWQELDKRIGGPVMLMYQSRLLAVVRLYDEQVRTALVEIHPDTGVVQELLTLPSKGDTSYAGVVIDGNELWVSYYSSHEIANAQLDAQNVQNESSISTQAKTMIYFAKIQLVGEF , report its soluble on expression in E. coli.
Result: not soluble

Ask: Using the record for MSYYHHHHHHLESTSLYKKAGSENLYFQGARDQGADEAREYEPGQPGMYELEFPAPQLSSSDGRGPVLVHALEGFSDAGHAIRLAAAHLKAALDTELVASFAIDELLDYRSRRPLMTFKTDHFTHSDDPELSLYALRDSIGTPFLLLAGLEPDLKWERFITAVRLLAERLGVRQTIGLGTVPMAVPHTRPITMTAHSNNRELISDFQPSISEIQVPGSASNLLEYRMAQHGHEVVGFTVHVPHYLTQTDYPAAAQALLEQVAKTGSLQLPLAVLAEAAAEVQAKIDEQVQASAEVAQVVAALERQYDAFIDAQENRSLLTRDEDLPSGDELGAEFERFLAQQAEKKSDDDP , report its soluble on expression in E. coli.
Result: soluble

Ask: Using the record for MVSLRSGKRVSRPSPSTPLEKPAETSTNPMETPKRAVKGQKTVEEKEKLPISLRKSERLAKNSGENSSAEIAEEHKEIVAPSQENSVDDDAESTQLSVDVFADPSDFEDDDDEVVPETDYEDNNEEPKNDQNPVEIPDNSDSDDDEPMEISSKNPVTSIENPENSDSDDDEPMEATSKAPEMSVAEPKSIIEKLLEKKAEKSAKLAAKKLKKRSKKKEAKKISDGVFQVKMKKSKAKFNVVTLKAGVQNILEPQINFREELLKSRTAGTRLADTEKFLQRGKWVSKR , report its soluble on expression in E. coli.
Result: soluble

Ask: Using the record for HISSQQHEKAIKSYFDEAQTQGVIIIKEGKNLSTYGNALARANKEYVPASTFKMLNALIGLENHKATTNEIFKWDGKKRTYPMWEKDMTLGEAMALSAVPVYQELARRTGLELMQKEVKRVNFGNTNIGTQVDNFWLVGPLKITPVQEVNFADDLAHNRLPFKLETQEEVKKMLLIKEVNGSKIYAKSGWGMGVTPQVGWLTGWVEQANGKKIPFSLNLEMKEGMSGSIRNEITYKSLENLGII , report its soluble on expression in E. coli.
Result: soluble

Ask: Using the record for MGSDKIHHHHHHMKKVLTAALLMTAPFMANAGADFVKGDKTFAGEAELGATLTTGNTDTSSYKGRLNFKHELGDWENQYLLEGLYKEDTGAVTAKRYLAGAQGNYKMNDRSYWFANANYEVDPFTGYDYTLSGATGYGHRLLDTSKTFLDVEIGPGYIYQRLDSEQALLEGTDSNDSVVAHGVINFETEITETSKFQQRFVADYGEKLDARSETSLTANIIGALAMKFAIIVRYNSEPLDDKKSTDTETNMTLLYSF , report its soluble on expression in E. coli.
Result: not soluble
